# System: A2780 ovarian cancer cells
# Test details: Ruthenium accumulation in cancer cells (ICP-MS)
# Assay type: cell-based, human
# Experimental conditions: A2780, 1/3 x IC50, 24 h drug exposure, no recovery time
Cell Ru strictly less than 0.3 ng x 106 cells = Satisfied. Otherwise Not satisfied.

Some solved entries appear below for comparison.
[[record]]
compound = "CS(=O)(=O)[N-]CCN.[Cl-].[Ru+2].c1ccc(-c2ccccc2-c2ccccc2)cc1 [Complex 5, [(o-terp)Ru(MsEn)Cl]]"
label_class = "Not satisfied"

[[record]]
compound = "CS(=O)(=O)[N-]CCN.Cc1ccc(C(C)C)cc1.[Cl-].[Ru+2] [Complex 1, [(p-cym)Ru(MsEn)Cl]]"
label_class = "Satisfied"

[[record]]
compound = "Cc1ccc(S(=O)(=O)[N-]CCN)cc1.[Cl-].[Ru+2].c1ccc(-c2ccccc2-c2ccccc2)cc1 [Complex 6, [(o-terp)Ru(TsEn)Cl]]"
label_class = "Not satisfied"

[[record]]
compound = "Cc1ccc(C(C)C)cc1.Cc1ccc(S(=O)(=O)[N-]CCN)cc1.[Cl-].[Ru+2] [Complex 2, [(p-cym)Ru(TsEn)Cl]]"
label_class = "Satisfied"

[[record]]
compound = "NCC[N-]S(=O)(=O)c1ccc(C(F)(F)F)cc1.[Cl-].[Ru+2].c1ccc(-c2ccccc2-c2ccccc2)cc1 [Complex 7, [(o-terp)Ru(TfEn)Cl]]"
label_class = "Not satisfied"


**Query** Answer whether the compound Cc1ccc(C(C)C)cc1.NCC[N-]S(=O)(=O)c1ccc(C(F)(F)F)cc1.[Cl-].[Ru+2] [Complex 3, [(p-cym)Ru(TfEn)Cl]] has Cell Ru strictly less than 0.3 ng x 106 cells
**Result** Not satisfied

----------
Please provide measured Cell accum. for the entries that follow.
# Tested on: A2780 ovarian cancer cells
# Test details: Ruthenium accumulation in cancer cells (ICP-MS)
# Assay type: cell-based, human
# Experimental conditions: A2780, 24 h, 1/3 x IC50
# Experimental: Briefly, 1.5 × 10^6 cells per well were seeded on a six-well plate. […] After this time, cells were washed, treated with trypsin-EDTA, counted and cell pellets were collected. Each pellet was digested overnight in concentrated nitric acid (73%) at 353 K; the resulting solutions were diluted using double-distilled water to give a final concentration of 5% HNO3 and the amount of Ru taken up by the cells was determined by ICP–MS. […]
Numbers only, in ng Ru/10^6 cells.

Here are 4 molecules. What values of Cell accum. were reported for them?
1. CS(=O)(=O)[N-]CCN.Cc1ccc(C(C)C)cc1.[Cl-].[Ru+2] [Complex 1, [(p-cym)Ru(MsEn)Cl]]
2. CS(=O)(=O)[N-]CCN.[Cl-].[Ru+2].c1ccc(-c2ccccc2-c2ccccc2)cc1 [Complex 5, [(o-terp)Ru(MsEn)Cl]]
3. Cc1ccc(C(C)C)cc1.NCC[N-]S(=O)(=O)c1ccc(C(F)(F)F)cc1.[Cl-].[Ru+2] [Complex 3, [(p-cym)Ru(TfEn)Cl]]
4. NCC[N-]S(=O)(=O)c1ccc(C(F)(F)F)cc1.[Cl-].[Ru+2].c1ccc(-c2ccccc2-c2ccccc2)cc1 [Complex 7, [(o-terp)Ru(TfEn)Cl]]

**Result**
0.16
2.8
0.31
2.4

// field: Cell accum.; key: Cc1ccc(C(C)C)cc1.Cc1ccc(S(=O)(=O)[N-]CCN)cc1.[Cl-].[Ru+2] [Complex 2, [(p-cym)Ru(TsEn)Cl]] ; value = 0.15

----------
# Test system: 9-ethylguanine
# Test details: Binding to model nucleobase 9-ethylguanine by 1H NMR
# Experimental conditions: D2O, pH* 7.2 ± 0.1, 310 K
Exercise: for every item that follows, state its recorded Binding constant for formation of 9-EtG adducts.
Answers are plain numbers, in mM⁻¹.

Sample records with Binding constant for formation of 9-EtG adducts:
[[record]]
molecule = "Cc1ccc(C(C)C)cc1.NCC[N-]S(=O)(=O)c1ccc(C(F)(F)F)cc1.[Cl-].[Ru+2] [Complex 3, [(p-cym)Ru(TfEn)Cl]]"
units_label = "mM⁻¹"
observed_value = 60.5

[[record]]
molecule = "CS(=O)(=O)[N-]CCN.Cc1ccc(C(C)C)cc1.[Cl-].[Ru+2] [Complex 1, [(p-cym)Ru(MsEn)Cl]]"
units_label = "mM⁻¹"
observed_value = 105.4

[[record]]
molecule = "Cc1ccc(C(C)C)cc1.Cc1ccc(S(=O)(=O)[N-]CCN)cc1.[Cl-].[Ru+2] [Complex 2, [(p-cym)Ru(TsEn)Cl]]"
units_label = "mM⁻¹"
observed_value = 104.9


Turning to the following molecule.
GET /value?item= Cc1ccc(C(C)C)cc1.NCC[N-]S(=O)(=O)c1ccc([N+](=O)[O-])cc1.[Cl-].[Ru+2] [Complex 4, [(p-cym)Ru(NO2En)Cl]] &field=Binding constant for formation of 9-EtG adducts returns 92.8

----------
I'd be grateful if you could share measured Cell viability for these entries.
# System: A2780 ovarian cancer cells
# Test details: Cell viability on co-administration of Ru complexes (1/3 x IC50) with formate or acetate
# Assay type: cell-based, human
# Experimental conditions: A2780, complex 1/3 x IC50, 24 h, formate 0.5 mM
Give bare numbers, in %.

[[record]]
compound = "Cc1ccc(C(C)C)cc1.NCC[N-]S(=O)(=O)c1ccc(C(F)(F)F)cc1.[Cl-].[Ru+2] [Complex 3, [(p-cym)Ru(TfEn)Cl]]"
observed_value = 60


Could you tell me Cell viability for each of these compounds? They are listed below.
1. CS(=O)(=O)[N-]CCN.Cc1ccc(C(C)C)cc1.[Cl-].[Ru+2] [Complex 1, [(p-cym)Ru(MsEn)Cl]]
2. CS(=O)(=O)[N-]CCN.[Cl-].[Ru+2].c1ccc(-c2ccccc2-c2ccccc2)cc1 [Complex 5, [(o-terp)Ru(MsEn)Cl]]
3. Cc1ccc(C(C)C)cc1.Cc1ccc(S(=O)(=O)[N-]CCN)cc1.[Cl-].[Ru+2] [Complex 2, [(p-cym)Ru(TsEn)Cl]]
4. NCCN.[Cl-].[Ru+2].c1ccc(-c2ccccc2)cc1 [Complex 8, [(bip)Ru(en)Cl]^+, reference compound]
5. Cc1ccc(S(=O)(=O)[N-]CCN)cc1.[Cl-].[Ru+2].c1ccc(-c2ccccc2-c2ccccc2)cc1 [Complex 6, [(o-terp)Ru(TsEn)Cl]]
6. NCC[N-]S(=O)(=O)c1ccc(C(F)(F)F)cc1.[Cl-].[Ru+2].c1ccc(-c2ccccc2-c2ccccc2)cc1 [Complex 7, [(o-terp)Ru(TfEn)Cl]]

**Result**
1: 61; 2: 71.9; 3: 49.7; 4: 71; 5: 59; 6: 20.8

----------
# Test system: A2780 ovarian cancer cells
# Test details: Cell viability on co-administration of Ru complexes (1/3 x IC50) with formate or acetate
# Type: cell-based, human
# Experimental conditions: A2780, complex 1/3 x IC50, 24 h, formate 1 mM
Observable: Cell viability (%)
Numbers only, in %.

Example entries begin here.
[[record]]
compound = "NCCN.[Cl-].[Ru+2].c1ccc(-c2ccccc2)cc1 [Complex 8, [(bip)Ru(en)Cl]^+, reference compound]"
observable = "Cell viability"
observed_value = 61

[[record]]
compound = "Cc1ccc(S(=O)(=O)[N-]CCN)cc1.[Cl-].[Ru+2].c1ccc(-c2ccccc2-c2ccccc2)cc1 [Complex 6, [(o-terp)Ru(TsEn)Cl]]"
observable = "Cell viability"
observed_value = 43.6

[[record]]
compound = "Cc1ccc(C(C)C)cc1.Cc1ccc(S(=O)(=O)[N-]CCN)cc1.[Cl-].[Ru+2] [Complex 2, [(p-cym)Ru(TsEn)Cl]]"
observable = "Cell viability"
observed_value = 38.2


Record Cc1ccc(C(C)C)cc1.NCC[N-]S(=O)(=O)c1ccc(C(F)(F)F)cc1.[Cl-].[Ru+2] [Complex 3, [(p-cym)Ru(TfEn)Cl]] ; system A2780 ovarian cancer cells; Cell viability = 39.4

----------
# Test details: pKa* of aqua adducts of the complexes
# Assay type: physicochemical
# Experimental conditions: pKa value determined in deuterated solvent
Would you mind telling me the reported pKa* of each entry?
Give bare numbers.

Some compounds with recorded pKa*:
[[record]]
compound = "CS(=O)(=O)[N-]CCN.Cc1ccc(C(C)C)cc1.[Cl-].[Ru+2] [Complex 1, [(p-cym)Ru(MsEn)Cl]]"
observable = "pKa*"
observed_value = 9.86

[[record]]
compound = "Cc1ccc(C(C)C)cc1.NCC[N-]S(=O)(=O)c1ccc(C(F)(F)F)cc1.[Cl-].[Ru+2] [Complex 3, [(p-cym)Ru(TfEn)Cl]]"
observable = "pKa*"
observed_value = 9.71

[[record]]
compound = "Cc1ccc(C(C)C)cc1.Cc1ccc(S(=O)(=O)[N-]CCN)cc1.[Cl-].[Ru+2] [Complex 2, [(p-cym)Ru(TsEn)Cl]]"
observable = "pKa*"
observed_value = 9.78


What the record says about Cc1ccc(C(C)C)cc1.NCC[N-]S(=O)(=O)c1ccc([N+](=O)[O-])cc1.[Cl-].[Ru+2] [Complex 4, [(p-cym)Ru(NO2En)Cl]] : pKa* is 9.56
